# system_tested: von Hippel-Lindau disease tumor suppressor/Bromodomain-containing protein 4 (Homo sapiens, UniProt O60885+P40337)
# Sequence (P40337 whole entry, looked up, other chains not shown): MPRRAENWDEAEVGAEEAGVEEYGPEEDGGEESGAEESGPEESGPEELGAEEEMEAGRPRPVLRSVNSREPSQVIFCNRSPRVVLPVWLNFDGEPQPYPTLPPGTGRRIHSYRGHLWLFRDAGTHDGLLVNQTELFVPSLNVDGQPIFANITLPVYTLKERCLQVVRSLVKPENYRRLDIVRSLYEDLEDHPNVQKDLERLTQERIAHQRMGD
# test: Protac activity at VHL E3 ligase/BRD4 in HEK293 cells assessed as BRD4 degradation by HiBiT assay
# Format: cell-based
assay_readout: pDC50

Solved cases below.
Cc1ncsc1-c1ccc(CNC(=O)[C@@H]2C[C@@H](O)CN2C(=O)[C@@H](NC(=O)CCCCCCNC(=O)C[C@@H]2N=C(c3ccc(Cl)cc3)c3c(sc(C)c3C)-n3c(C)nnc32)C(C)(C)C)cc1 (stereo in doubt); 6.9
Cc1sc2c(c1C)C(c1ccc(Cl)cc1)=N[C@@H](CC(=O)N1CCN(CC3CCN(c4ccc5c(c4)CN(C4CCC(=O)NC4=O)C5=O)CC3)CC1)c1nnc(C)n1-2 (stereo in doubt); 9.1

Please give the measured pDC50 for this compound: Cc1sc2c(c1C)C(c1ccc(Cl)cc1)=N[C@@H](CC(=O)N1CCN(CC#Cc3ccc4c(c3)CN(C3CCC(=O)NC3=O)C4=O)CC1)c1nnc(C)n1-2 (stereo in doubt)
8

###

# system_tested: von Hippel-Lindau disease tumor suppressor/Bromodomain-containing protein 4 (Homo sapiens, UniProt O60885+P40337)
# test: Protac activity at VHL E3 ligase/BRD4 in HEK293 cells assessed as degradation maximum by HiBiT assay relative to control
# Assay type: cell-based
Each entry below carries its recorded Emax.
Number only, in %; omit the unit.

Completed entries (count: 2):
Cc1sc2c(c1C)C(c1ccc(Cl)cc1)=N[C@@H](CC(=O)N1CCN(CC3CCN(c4ccc5c(c4)CN(C4CCC(=O)NC4=O)C5=O)CC3)CC1)c1nnc(C)n1-2 (stereo in doubt); 100
Cc1sc2c(c1C)C(c1ccc(Cl)cc1)=N[C@@H](CC(=O)N1CCN(CC#Cc3ccc4c(c3)CN(C3CCC(=O)NC3=O)C4=O)CC1)c1nnc(C)n1-2 (stereo in doubt); 96

Please give the measured Emax for this compound: Cc1ncsc1-c1ccc(CNC(=O)[C@@H]2C[C@@H](O)CN2C(=O)[C@@H](NC(=O)CCCCCCNC(=O)C[C@@H]2N=C(c3ccc(Cl)cc3)c3c(sc(C)c3C)-n3c(C)nnc32)C(C)(C)C)cc1 (stereo in doubt; 7P)
94

// returns reported Emax for input Cc1sc2c(c1C)C(c1ccc(Cl)cc1)=N[C@@H](CC(=O)N1CCN(CCC3CCN(c4ccc5c(c4)CN(C4CCC(=O)NC4=O)C5=O)CC3)CC1)c1nnc(C)n1-2 (stereo in doubt)
99

Requested read-out: Emax. Entry: Cc1sc2c(c1C)C(c1ccc(Cl)cc1)=N[C@@H](CC(=O)N1CCN(CCCC3CCN(c4ccc5c(c4)CN(C4CCC(=O)NC4=O)C5=O)CC3)CC1)c1nnc(C)n1-2 (stereo in doubt)
100

Which Emax is reported for this compound? Cc1sc2c(c1C)C(c1ccc(Cl)cc1)=N[C@@H](CC(=O)NCCCCCC(=O)NCCCC#Cc1cccc3c1CN(C1CCC(=O)NC1=O)C3=O)c1nnc(C)n1-2 (stereo in doubt)
93

###

# system_tested: von Hippel-Lindau disease tumor suppressor/Bromodomain-containing protein 4 (Homo sapiens, UniProt O60885+P40337)
# test: Protac activity at VHL E3 ligase/BRD4 in HEK293 cells assessed as BRD4 degradation by HiBiT assay
# Format: cell-based
pDC50 overview

Cc1ncsc1-c1ccc(CNC(=O)[C@@H]2C[C@@H](O)CN2C(=O)[C@@H](NC(=O)CCCCCCNC(=O)C[C@@H]2N=C(c3ccc(Cl)cc3)c3c(sc(C)c3C)-n3c(C)nnc32)C(C)(C)C)cc1 (stereo in doubt; 7P); 6.8

Reported pDC50 for Cc1sc2c(c1C)C(c1ccc(Cl)cc1)=N[C@@H](CC(=O)NCCCCCC(=O)N1CCN(CCCC3CCN(c4ccc5c(c4)CN(C4CCC(=O)NC4=O)C5=O)CC3)CC1)c1nnc(C)n1-2 (stereo in doubt) : what is it?
9.3

Which value of pDC50 has been reported for Cc1sc2c(c1C)C(c1ccc(Cl)cc1)=N[C@@H](CC(=O)N1CCN(CC3CCN(c4ccc5c(c4)CN(C4CCC(=O)NC4=O)C5=O)CC3)CC1)c1nnc(C)n1-2 (stereo in doubt; 1P) in the records?
9.7

GET /values?readout=pDC50&item= Cc1sc2c(c1C)C(c1ccc(Cl)cc1)=N[C@@H](CC(=O)NCCCCCC(=O)NCCCC#Cc1cccc3c1CN(C1CCC(=O)NC1=O)C3=O)c1nnc(C)n1-2 (stereo in doubt)
7.3
